target: PR (Homo sapiens); construct: endogenous in cells; host or cells: T-47D cells (ATCC); assay: Functional assay of progesterone receptor antagonism (progesterone-induced alkaline phosphatase, T-47D cells); assay type: cell-based; details: antagonism of progesterone (3 nM)-induced PR activity
Sequence (P06401 whole entry): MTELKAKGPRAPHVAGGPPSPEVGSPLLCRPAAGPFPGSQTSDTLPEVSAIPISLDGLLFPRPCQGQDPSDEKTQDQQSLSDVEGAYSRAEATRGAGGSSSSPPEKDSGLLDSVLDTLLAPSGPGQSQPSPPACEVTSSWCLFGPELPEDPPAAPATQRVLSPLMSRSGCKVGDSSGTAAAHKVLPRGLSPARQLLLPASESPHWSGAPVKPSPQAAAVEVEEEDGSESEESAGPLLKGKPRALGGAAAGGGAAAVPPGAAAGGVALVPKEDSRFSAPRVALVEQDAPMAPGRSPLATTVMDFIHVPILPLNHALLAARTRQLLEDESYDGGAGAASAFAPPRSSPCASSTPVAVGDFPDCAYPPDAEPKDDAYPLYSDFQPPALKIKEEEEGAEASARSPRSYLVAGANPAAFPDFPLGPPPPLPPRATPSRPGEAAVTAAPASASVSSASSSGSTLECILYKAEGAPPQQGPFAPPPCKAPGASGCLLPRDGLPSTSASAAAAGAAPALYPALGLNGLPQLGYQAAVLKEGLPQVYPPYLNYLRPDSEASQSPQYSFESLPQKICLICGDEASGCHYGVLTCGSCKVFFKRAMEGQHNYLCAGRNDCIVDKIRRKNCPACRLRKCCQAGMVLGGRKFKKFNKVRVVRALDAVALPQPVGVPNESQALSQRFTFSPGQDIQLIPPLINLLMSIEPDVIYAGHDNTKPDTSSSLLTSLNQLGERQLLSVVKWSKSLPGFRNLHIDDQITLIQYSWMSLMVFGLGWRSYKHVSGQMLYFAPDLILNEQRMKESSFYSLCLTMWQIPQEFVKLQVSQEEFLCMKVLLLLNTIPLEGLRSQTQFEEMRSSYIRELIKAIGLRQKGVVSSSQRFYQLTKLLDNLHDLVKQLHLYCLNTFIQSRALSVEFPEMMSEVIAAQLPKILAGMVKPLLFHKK
readoutKind: IC50 (nM)

1. COC(=O)C1=C(C)NC(C)=C(C#N)C1c1ccc(F)cc1Cl (centres unmarked)
2. COCC1=C(C(=O)OC(C)C)C(c2ccc(F)cc2Br)C(C#N)=C(C)N1 (centres unmarked)
INPUT: Compare IC50: is it lower for 1 or for 2 ? # answer = label of selected item
OUTPUT: 1
(1: 478 nM, 2: 2300 nM)
